B1: MMP1 (parent)
chain: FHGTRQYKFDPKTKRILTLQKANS

# Variants of: B1
# experimentDescription: protein stability index of a GFP-peptide fusion (GPS, HEK-293T) (PSI 1-6); higher = more stable;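 note: lentivirally expressed fusions sorted by FACS into six bins by GFP to DsRed ratio, PSI derived from sequencing read proportions per bin multiplied by bin number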
# studyConditions: c terminus: a fixed tail appended
Assign yes to entries whose protein stability index meets or exceeds 2; assign no to the rest.

// query Form field: protein stability index at least 2? Entry: K14I
// result no

// query Form field: protein stability index at least 2? Entry: D10C
// result no

// query Form field: protein stability index at least 2? Entry: H2D
// result yes

// query Form field: protein stability index at least 2? Entry: A22I
// result no

// query Form field: protein stability index at least 2? Entry: S24Y
// result no

// query Form field: protein stability index at least 2? Entry: F9V
// result no

// query Form field: protein stability index at least 2? Entry: I16G
// result no

// query Form field: protein stability index at least 2? Entry: K12C
// result no

All values here come from the supplement of paper PMC10567573.
